As shown below, each of these molecules has a reported IC50 value.
Target: GDP-bound KRAS protein (aa 1-169), containing both G12C and C118A amino acid substitutions (Homo sapiens (Human), UniProt P01116, C118A/G12C)
Sequence (P01116 other isoform, or with tags, fused parts or gaps G12C/C118A): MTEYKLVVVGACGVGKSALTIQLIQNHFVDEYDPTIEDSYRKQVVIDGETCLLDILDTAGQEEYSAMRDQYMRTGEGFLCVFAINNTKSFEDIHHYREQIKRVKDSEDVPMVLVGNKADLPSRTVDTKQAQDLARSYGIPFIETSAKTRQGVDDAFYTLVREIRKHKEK
Test: Coupled Nucleotide Exchange Assay
Format: biochemical
Settings: read-out: Coupled Exchange IC50 (2 h); 2 h compound pre-incubation

[
  {
    "Molecule": "C=CC(=O)N1CC(NC(=O)Cn2c3c(c4cc(Br)ccc42)CCCCC3)C1 [Example 102]",
    "Comparator": "=",
    "IC50 (µM)": 4.9
  },
  {
    "Molecule": "C=CC(=O)N1CC(NC(=O)Cn2c(C)c(-c3ccccc3Cc3ccccc3)c3cc(Cl)ccc32)C1 [Example 56]",
    "Comparator": "=",
    "IC50 (µM)": 0.88
  },
  {
    "Molecule": "C=CC(=O)N1CC(NC(=O)Cn2c(C)c(C(=O)N3CCc4ccccc4[C@H]3C)c3cc(Br)cc(C)c32)C1 (stereo in doubt) [Example 2-2]",
    "Comparator": "=",
    "IC50 (µM)": 0.25
  },
  {
    "Molecule": "C=CC(=O)N1CC(NC(=O)Cn2ccc3cc(Cl)ccc32)C1 [Example 187]",
    "Comparator": ">",
    "IC50 (µM)": 250
  },
  {
    "Molecule": "C=CC(=O)N1CC(NC(=O)Cn2c3ccc(Br)cc3c3ccc(Cl)nc32)C1 [Example 218]",
    "Comparator": ">",
    "IC50 (µM)": 250
  },
  {
    "Molecule": "C=CC(=O)N1CC(NC(=O)Cn2cc(-c3ccc(F)cc3F)c3cc(Br)ccc32)C1 [Example 137]",
    "Comparator": "=",
    "IC50 (µM)": 6.9
  },
  {
    "Molecule": "C=CC(=O)N1CC(NC(=O)Cn2cc(C(=O)C(=O)OCC)c3ccccc32)C1 [Example 200]",
    "Comparator": ">",
    "IC50 (µM)": 250
  },
  {
    "Molecule": "C=CC(=O)N1CC(NC(=O)Cn2ccc3cc(Br)ccc32)C1 [Example 180]",
    "Comparator": ">",
    "IC50 (µM)": 250
  },
  {
    "Molecule": "C=CC(=O)N1CC(NC(=O)Cn2c(C)c(-c3cccnc3OC(C)C)c3cc(Br)ccc32)C1 [Example 115]",
    "Comparator": "=",
    "IC50 (µM)": 2.78
  },
  {
    "Molecule": "C=CC(=O)N1CC(NC(=O)Cn2c(C)c(-c3cncnc3C(C)C)c3cc(Cl)ccc32)C1 [Example 5-2]",
    "Comparator": "=",
    "IC50 (µM)": 1.05
  },
  {
    "Molecule": "C=CC(=O)N1CC(NC(=O)Cn2c(C)c(C(=O)N3[C@H](C)CN(c4ccc(C#N)cn4)C[C@H]3C)c3cc(Br)ccc32)C1 [Example 22]",
    "Comparator": "=",
    "IC50 (µM)": 0.19
  },
  {
    "Molecule": "C=CC(=O)N1CC(N(C)C(=O)Cn2cc(I)c3cc(Br)ccc32)C1 [Example 43]",
    "Comparator": "=",
    "IC50 (µM)": 4.65
  },
  {
    "Molecule": "C=CC(=O)N1CC(NC(=O)Cn2cc(-c3cc[nH]n3)c3ccc(-c4ccccc4Cl)cc32)C1 [Example 229]",
    "Comparator": "=",
    "IC50 (µM)": 18.9
  },
  {
    "Molecule": "C=CC(=O)N1CC(NC(=O)Cn2c3ccc(Br)cc3c3ccc(Oc4cccnc4)nc32)C1 [Example 55]",
    "Comparator": "=",
    "IC50 (µM)": 0.95
  },
  {
    "Molecule": "C=CC(=O)N1CC(NC(=O)Cn2ccc3cc(C(F)(F)F)ccc32)C1 [Example 235]",
    "Comparator": ">",
    "IC50 (µM)": 250
  },
  {
    "Molecule": "C=CC(=O)N1CC(NC(=O)Cn2cc(-c3cccc(C(C)C)c3)c3cc(Br)cc(C)c32)C1 [Example 268]",
    "Comparator": "=",
    "IC50 (µM)": 6.81
  },
  {
    "Molecule": "C=CC(=O)N1CC(NC(=O)Cn2cc(I)c3ccc(Br)cc32)C1 [Example 70]",
    "Comparator": "=",
    "IC50 (µM)": 8.96
  }
]

Attribution: patent US11053226B2
